# system-tested: HA of influenza B virus B/Florida/04/2006 (live virus) (influenza B virus B/Florida/04/2006)
# test: cell-based or functional assay
Each entry below carries its reported VNA titers.

INSERT INTO measurements (binder, measure, result) VALUES
  ('CR11036 (antibody, V domains shown) VH: EVQLVQSGAEVKKPGASVTVSCKASGYAFTSYYLHWVRQAPGQGLEWMGIMNLHGGSTTYAQKFQGRVTMTRDTSTRTVYMELSGLRSEDSAVYYCARESPDSSGYPGYYGMDVWGQGTTVTVSS VL: EIVLTQSPGTLSLSPGERATLSCRASQSVSSDFFAWYQQKRGQTPTLLIYGTSTRATGIPDRFSGSGSGTDFTLSVARLEPEDFAVYYCQQYGSSTWTFGQGTKVEIK', 'VNA titers', '< 0.06 µg/mL'),
  ('CR8033 (antibody, V domains shown) VH: EVQLVETGGGLVQPGRSLRLSCAASGFSFDEYTMHWVRQAPGKGLEWVAGINWKGNFMGYADSVQGRFTISRDNGKNSLYLQMNSLRAEDTALYYCAKDRLESSAMDILEGGTFDIWGQGTMVT VL: EIVLTQSPGTLSLSPGERATLSCRASQSVSSSYLAWYQQKPGQAPRLLIYGASTRATGIPARFSGSGSGTDFTLTISRLEPEDLAVYYCQQYGSSPWTFGQGTKVEIK', 'VNA titers', '0.02 µg/mL'),
  ('CR11039 (antibody, V domains shown) VH: EVQLVQSGAEVKKPGESVKISCKTSGYAFTGYGISWVRQAPGQGLEWMGWINTYKFNTNYAQNLQGRVTMTIDTSTSAAYMELRSLRYEDTAVYFCARDWAGPFGNAFDVWGQGTMVTVSS VL: IQMTQSPSSLSASIGDRVAITCQASQDISDYLNWYQQQPGKAPKLLLYGASNLETGVPSRFSGSGSGTDFTFTISSLQPEDIATYYCQQYGNLPPTFGGGTKLEIK', 'VNA titers', '< 0.06 µg/mL'),
  ('CR8034 (antibody, V domains shown) VH: EVQLVETGGGLVQPGRSLRLSCAASGFTFDEYIMHWVRQAPGKGPEWVAGINWKGNFMGYADSVQGRFTISRDNAKNSLYLQMNSLRADDTALYYCAKDRLESSAMDILEGGTFDIWGQGTMVTVSS VL: DIQMTQSPSSLSASVGDRVTITCRASQGIRNDLGWYQQKPGKAPKRLIYAASSLQSGVPSRFSGSGSGTDFTLTISSLQPEDFATYYCQQANTYPLTFGGGTKLEIK', 'VNA titers', '0.12 µg/mL');

Let us examine a further case.
Recorded VNA titers (binder CR8035 (antibody, V domains shown) VH: EVQLVESGGGLVQPGRSLRLSCAASGFTFDEYIMHWVRQAPGKGPEWVAGINWKGNFMGYADSVQGRFTISRDNAKNSLYLQMNSLRADDTALYYCAKDRLESSAMDILEGGTFDIWGQGTMVTVSS VL: SSELTQDPAVSVALGQTVRITCQGDSLRSYYASWYQQKPGQAPVLVIYGKNNRPSGIPDRFSGSSSRNTASLTITGAQAEDEADYYCDSRDSSGTHYVFGGGTKVTVL ): 0.66 µg/mL

Origin of the recorded values: patent US20160002318A1
